Test system: skin (dorsal surface) of fuzzy rats
Test: Skin Irritation Study (modified Draize, 3-day occlusive dermal application)
Type: in vivo
Parameters: key: modified Draize index, 0-8 (erythema 0-4 + edema 0-4)
Details: 3 DAY occlusion; 50 mg over 2 cm^2; irritation index ± SD (n); maximum 8
Procedure: Fuzzy rats (Temple University) 150 to 200 g were used to study the dermal irritancy as the neat compounds. […] Treated skin areas were then evaluated according to a modified Draize scoring method, and the irritation index was evaluated for each test site. […] The "secondary irritation index" (SII) was determined 7 days after dressing removal. […]
property-name: Primary Irritation Index (PII), T0-T72 hrs
Just the number, please, no unit after it.

CCCCCCCCCCCCOC(=O)[C@@H]1CCC(=O)N1 [Dodecyl pyroglutamate] has a reported Primary Irritation Index (PII), T0-T72 hrs of 0

CC(C)=CCCC(C)=CCCC(C)=CCOC(=O)[C@@H]1CCC(=O)N1 [Farnesyl pyroglutamate] has a reported Primary Irritation Index (PII), T0-T72 hrs of 0

CCCCCCCCCCOC(=O)[C@@H]1CCC(=O)N1 [Decyl pyroglutamate, Decyl Pyroglutamate] has a reported Primary Irritation Index (PII), T0-T72 hrs of 0.9

CCCCCCCC/C=C\CCCCCCCCOC(=O)[C@@H]1CCC(=O)N1 [Oleyl pyroglutamate] has a reported Primary Irritation Index (PII), T0-T72 hrs of 0.1

CCCCCCCCCCCCN1CCCCCC1=O [Azone, reference compound] has a reported Primary Irritation Index (PII), T0-T72 hrs of 4.0

====

test: Rat plasma hydrolysis; format: in vitro ADME; details: 37° C., decanol generated, by GC, read-out: t 1/2 of enzymatic hydrolysis in rat plasma
property-name: half-life
Returns: string containing the numeric result and its unit.

CCCCCCCCCCOC(=O)[C@@H]1CCC(=O)N1 [Decyl pyroglutamate, Decyl Pyroglutamate] has a reported half-life of 1.7 min

====

assay: Aqueous solubility; assay type: physicochemical; conditions: water, at 32°
property-name: solubility

OCc1ccccc1C=CCc1cc2c(cc1O)CCO2 [reference compound] has a reported solubility of < 0.2 µg/mL

====

assay: In vitro diffusion cell permeation through shed snake skin (Example 4); assay type: in vitro ADME, Elaphae obsolete (black rat snake); conditions: weight ratio of enhancer/indomethacin 15.0; 32°; pH 7.2
Would you kindly list flux of indomethacin for each of these compounds?
Numbers only here, please. The scale is μg/cm^2 /hr.

CCCCCCCCCCCCOC(=O)[C@@H]1CCC(=O)N1 [Dodecyl pyroglutamate] has a reported flux of indomethacin of 0.630

CC(C)=CCCC(C)=CCCC(C)=CCOC(=O)[C@@H]1CCC(=O)N1 [Farnesyl pyroglutamate] has a reported flux of indomethacin of 0.317

CCCCCCCC/C=C\CCCCCCCCOC(=O)[C@@H]1CCC(=O)N1 [Oleyl pyroglutamate] has a reported flux of indomethacin of 0.450

CCCCCCCCCCOC(=O)[C@@H]1CCC(=O)N1 [Decyl pyroglutamate, Decyl Pyroglutamate] has a reported flux of indomethacin of 0.477
